Just for reference, patent US10759783B2 is where these values come from.

biological target: BTK (phospho-BTK) in human whole blood (Homo sapiens, UniProt Q06187); assay: In vitro PD assay in human whole blood (pBTK assay); conditions: read-out: pBTK IC50; human whole blood, 37° C. for 30 min
Sequence (Q06187 whole entry): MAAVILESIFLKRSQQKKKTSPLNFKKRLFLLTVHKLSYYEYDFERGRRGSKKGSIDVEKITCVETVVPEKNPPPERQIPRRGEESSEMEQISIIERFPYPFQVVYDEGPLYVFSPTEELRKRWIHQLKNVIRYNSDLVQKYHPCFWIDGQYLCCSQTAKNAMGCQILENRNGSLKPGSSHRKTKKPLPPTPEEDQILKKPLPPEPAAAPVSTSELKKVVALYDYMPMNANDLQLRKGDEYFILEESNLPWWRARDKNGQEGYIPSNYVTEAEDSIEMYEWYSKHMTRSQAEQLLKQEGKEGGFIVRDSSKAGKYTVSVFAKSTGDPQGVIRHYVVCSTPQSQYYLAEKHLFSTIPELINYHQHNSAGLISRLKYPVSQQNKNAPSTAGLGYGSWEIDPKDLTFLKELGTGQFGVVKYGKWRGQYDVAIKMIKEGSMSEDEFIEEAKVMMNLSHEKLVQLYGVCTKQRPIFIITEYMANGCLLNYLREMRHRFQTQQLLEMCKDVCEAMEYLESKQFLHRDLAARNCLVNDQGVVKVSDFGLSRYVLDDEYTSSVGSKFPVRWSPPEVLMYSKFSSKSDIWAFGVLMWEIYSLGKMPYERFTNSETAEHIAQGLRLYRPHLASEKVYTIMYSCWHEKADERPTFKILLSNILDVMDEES
READOUT NAME: IC50

Cc1cc(-c2ccnc(Nc3cnn(C(C)C)c3)n2)ccc1CNC(=O)N1CC(OC(C)(C)C)C1 [Example I-306]: < 500 nM

# evaluate next
Form field IC50, entry Cc1cc(-c2ccnc(Nc3cnn([C@@H]4CCNC[C@H]4F)c3)n2)ccc1CNC(=O)N1CC(OC(C)C)C1 (relative stereo) [Example I-220] : < 500 nM

---

This listing pairs compounds with measured IC50.
target: BTK (phospho-BTK) in human whole blood (Homo sapiens); assay: In vitro PD assay in human whole blood (pBTK assay)

CC(C)OC1CN(C(=O)NC2CCN(C3COC3)Cc3cc(-c4ccnc(Nc5cnn(C)c5)n4)ccc32)C1 (centres unmarked) [Example I-188]: 500 to 1500 nM

Tested system BTK (phospho-BTK) in human whole blood (Homo sapiens); IC50 recorded for Cc1cc(-c2cc(Nc3cc4n(n3)CC(C)N(C)C4)ncn2)ccc1CNC(=O)c1cnc(C(C)(C)C)s1 (centres unmarked) [Example I-279] was < 500 nM

Summary line: Cc1cc(-c2ccnc(Nc3cnn(C4CCOCC4)c3)n2)ccc1CNC(=O)c1cnc(C(C)(C)C)s1 [Example I-38] , BTK (phospho-BTK) in human whole blood (Homo sapiens), reported IC50 = 500 to 1500 nM

The value of IC50 recorded for CC(C)(C)C1CCN(C(=O)NC2CCCCc3cc(-c4ccnc(Nc5cnn(C6CCOCC6)c5)n4)ccc32)C1 (centres unmarked) [Example I-330] when tested on BTK (phospho-BTK) in human whole blood (Homo sapiens) reads < 500 nM

IC50 on BTK (phospho-BTK) in human whole blood (Homo sapiens) for CC(C)(C)OC1CN(C(=O)NCc2ccc(-c3ccnc(Nc4cnn(C5CC5)c4)n3)cc2C(F)(F)F)C1 [Example I-294] is < 500 nM

Bench note, BTK (phospho-BTK) in human whole blood (Homo sapiens): Cn1cc(Nc2nccc(-c3ccc(CNC(=O)N4CC(OC(C)(C)C)C4)c(CCO)c3)n2)cn1 [Example I-190] , IC50 reads < 500 nM

Entry Cc1cc(-c2ccnc(Nc3cnn(C)c3)n2)ccc1CNC(=O)N1CC(OCCF)C1 [Example I-307] , BTK (phospho-BTK) in human whole blood (Homo sapiens) data, IC50 value: < 500 nM

Record Cc1cc(-c2ccnc(Nc3ccc(N4CCN(C)CC4)cn3)n2)ccc1CNC(=O)c1cnc(C(C)(C)C)s1 [Example I-62] has BTK (phospho-BTK) in human whole blood (Homo sapiens) IC50 equal to 1500 to 10000 nM

Form: item Cc1cc(-c2nc(Nc3cnn(C)c3)ncc2F)ccc1CNC(=O)c1cnc(C(C)(C)C)s1 [Example I-111] ; test system BTK (phospho-BTK) in human whole blood (Homo sapiens); IC50: 1500 to 10000 nM

Cc1cc(-c2ccnc(Nc3cnn(C4CCN(S(C)(=O)=O)CC4)c3)n2)ccc1CNC(=O)c1cnc(C(C)(C)C)s1 [Example I-47] on BTK (phospho-BTK) in human whole blood (Homo sapiens) gives IC50 = 500 to 1500 nM

Entry Cc1cc(-c2cc(Nc3cc4n(n3)CCCNC4)ncn2)ccc1CNC(=O)N1CC(OC(C)C)C1 [Example I-273] , BTK (phospho-BTK) in human whole blood (Homo sapiens) data, IC50 value: < 500 nM

Bench note, BTK (phospho-BTK) in human whole blood (Homo sapiens): entry CC(C)(C)OC1CN(C(=O)NC2CCCCc3cc(-c4ccnc(Nc5cnn(C6CCOCC6)c5)n4)ccc32)C1 (centres unmarked) [Example I-179] , its IC50 = < 500 nM

IC50 for BTK (phospho-BTK) in human whole blood (Homo sapiens) with input Cc1cc(-c2ccnc(Nc3cc4n(n3)CCN(C)C4)n2)ccc1CNC(=O)c1cnc(C(C)(C)C)s1 [Example I-55] equals 1500 to 10000 nM

IC50 on BTK (phospho-BTK) in human whole blood (Homo sapiens) for Cc1cc(-c2ccnc(Nc3cnn(C)c3)n2)ccc1CNC(=O)N1CCC(C(C)(C)C)C1 (centres unmarked) [Example I-224] is < 500 nM

BTK (phospho-BTK) in human whole blood (Homo sapiens) assay, compound Cc1cc(-c2ccnc(Nc3cnn(C)c3)n2)ccc1CN1Cc2nc(C(C)(C)C)sc2C1=O [Example I-12] , recorded IC50 = < 500 nM

Summary line: CC(C)OC1CN(C(=O)NC2CCCCc3cc(-c4ccnc(Nc5cnn(C6CCOCC6)c5)n4)ccc32)C1 (centres unmarked) [Example I-172] , BTK (phospho-BTK) in human whole blood (Homo sapiens), reported IC50 = < 500 nM

With BTK (phospho-BTK) in human whole blood (Homo sapiens) as the test system, Cc1cc(-c2cc(Nc3cc4n(n3)CC(=O)N(C)C4)ncn2)ccc1CNC(=O)c1cnc(C(C)(C)C)s1 [Example I-286] showed IC50 of < 500 nM

Observed IC50 on BTK (phospho-BTK) in human whole blood (Homo sapiens), entry Cc1cc(-c2ccnc(Nc3cnn(C)c3)n2)ccc1C(CO)NC(=O)c1cnc(C(C)(C)C)s1 (centres unmarked) [Example I-108] , equals 1500 to 10000 nM

Readout IC50 for Cc1cc(-c2cc(Nc3cc4n(n3)CCC4)ncn2)ccc1CNC(=O)c1cnn(C(C)(C)C)c1 [Example I-193] , test system BTK (phospho-BTK) in human whole blood (Homo sapiens), was < 500 nM
